These entries and their values trace back to patent US20210388087A1.

Biological target: T1, Human CD3eg linker (human)
T1 construct: single-chain construct; also called recombinant human CD3
T1 chain: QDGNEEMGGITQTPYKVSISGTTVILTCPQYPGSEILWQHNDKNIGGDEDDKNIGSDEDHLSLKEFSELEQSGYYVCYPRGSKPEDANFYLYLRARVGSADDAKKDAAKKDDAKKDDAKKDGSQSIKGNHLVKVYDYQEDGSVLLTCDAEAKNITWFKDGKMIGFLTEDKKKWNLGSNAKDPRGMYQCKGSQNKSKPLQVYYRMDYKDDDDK
Assay: SPR, vs unmutated H183/L072

{"Binder": "dBBDu183H G65Y/dBBDu072L (antibody, name in Kabat numbering, V domains shown) VH: QVQLVESGGGLVQPGRSLRLSCAASGFTFSNAWMHWVRQAPGKGLEWVAQIKDKGNAYAAYYAPSVKYRFTISRDDSKNSIYLQMNSLKTEDTAVYYCHYVHYASASTVLPAFGVDAWGQGTTVTVSS VL: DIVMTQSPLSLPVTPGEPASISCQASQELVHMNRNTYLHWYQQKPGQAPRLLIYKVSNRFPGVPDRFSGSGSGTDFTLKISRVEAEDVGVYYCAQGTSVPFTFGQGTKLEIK", "fold change of affinity, fold": 1}
{"Binder": "dBBDu183H P100eY/dBBDu072L (antibody, name in Kabat numbering, V domains shown) VH: QVQLVESGGGLVQPGRSLRLSCAASGFTFSNAWMHWVRQAPGKGLEWVAQIKDKGNAYAAYYAPSVKGRFTISRDDSKNSIYLQMNSLKTEDTAVYYCHYVHYASASTVLYAFGVDAWGQGTTVTVSS VL: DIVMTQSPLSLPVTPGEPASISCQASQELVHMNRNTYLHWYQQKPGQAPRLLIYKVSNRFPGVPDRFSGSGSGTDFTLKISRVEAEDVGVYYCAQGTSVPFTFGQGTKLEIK", "fold change of affinity, fold": 2}
{"Binder": "dBBDu183H Y94V/dBBDu072L (antibody, name in Kabat numbering, V domains shown) VH: QVQLVESGGGLVQPGRSLRLSCAASGFTFSNAWMHWVRQAPGKGLEWVAQIKDKGNAYAAYYAPSVKGRFTISRDDSKNSIYLQMNSLKTEDTAVYYCHVVHYASASTVLPAFGVDAWGQGTTVTVSS VL: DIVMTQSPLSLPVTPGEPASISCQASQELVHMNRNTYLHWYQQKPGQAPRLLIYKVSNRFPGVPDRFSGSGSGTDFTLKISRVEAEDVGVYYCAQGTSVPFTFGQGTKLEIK", "fold change of affinity, fold": 2.6}
